- System Tested: AMP-activated protein kinase, AMPK (Homo sapiens) (UniProt P54646+O43741+P54619+Q9UGJ0+Q9Y478+Q13131+Q9UGI9)
- Measurement Description: AMP-dependent Kinase enzyme assay. An in vitro enzyme assay that detects ADP turnover that is directly proportional to AMPK activity. This uses naive AMPK that is activated during the assay with MK-8722
- Format: functional
- Parameters: scale not given: direction of the effect not stated beside the values
- Study Conditions: 30 µM
Catalogue of Percent Effect values
Reported Metric: Percent Effect

- c1cncc(OC2CCN(CCn3cc4ccccc4n3)CC2)c1: 13.1%
- Cc1nc(C)c(C(C)NCc2cnc(N3CCOCC3)nc2)s1 (stereo not given): 7.71%
- CNC(=O)c1ccc(CN(C(C)C)C(C)C)o1: -7.38%
- CC(O)C(=O)N1CCC(c2[nH]ncc2-c2ccccc2)CC1 (stereo not given): -11.2%
- Cc1noc(CN(C)c2ccccc2)n1: 5.44%
- CCN(Cc1ccc(N(C)C)cc1)S(=O)(=O)c1cc(Br)ccc1OC: -8.72%
- COc1ccc2cc(C(=O)NCCNc3ccc(C)nn3)[nH]c2c1: 8.22%
- O=C1NC(C(=O)NCc2cccnc2Oc2ccc(F)c(F)c2)CO1 (stereo not given): 0.367%
- Cc1cc(NCCNc2cccnc2)nc(-c2ccccc2O)n1: 19.9%
- COc1ccccc1C1CCN(C(=O)CN2C(=O)OC(C)(C)C2=O)CC1: -11.8%
- COc1ccc(C(=O)NCC2CCCN(C3CCOCC3)C2)c(O)c1 (stereo not given): 14.3%
- CN(CCNC(=O)Nc1ccn(C)n1)Cc1ccc(F)cc1: 3.18%
- O=C(NC1CCCN(Cc2c(F)cccc2F)C1)c1cc[nH]n1 (stereo not given): -4.83%
- Nc1cc(C(=O)N2CCC(Oc3cccc(C(F)(F)F)c3)CC2)ccn1: -4.01%
- Cc1c(Br)cccc1NC(=O)N(C)CCO: -2.37%
- COc1cc2c(cc1CNCc1ccnc(-n3cccn3)c1)OC(C)C2 (stereo not given): -1.78%
- Cc1noc(CCCNC(=O)C2CSCN2C(=O)C(C)(C)C)n1 (stereo not given): -6.28%
- Cc1nc2c(c(NCCc3nccs3)n1)CCN(CC1CC1)CC2: 6.45%
- Cn1ccnc1CNC(=O)CC1CCCCO1 (stereo not given): -3.14%
- CN1CCN(c2ncc(CNCCCc3cccc(F)c3)cn2)CC1: 4.72%
- CCN(Cc1ccncc1)C1CCN(c2ccccc2)C1=O (stereo not given): -7.01%
- COc1ccccc1N1CCN(C(=O)CCc2nncn2C)C(C)C1 (stereo not given): 24.5%
- Cc1cc(C)c2[nH]c(C(=O)NCCN3CCOC3=O)c(C)c2c1: 16.4%
- O=C(NCc1nnc2n1CCC2)c1cn(-c2ccccc2Br)nn1: 12%
- c1ccc(Cc2noc(-c3ccc(NCC4CCCOC4)nc3)n2)cc1 (stereo not given): 6.64%

====

Recorded Percent Effect for the following compounds
- System Tested: Arginase-2, mitochondrial (Homo sapiens) (UniProt P78540)
- Sequence (whole entry): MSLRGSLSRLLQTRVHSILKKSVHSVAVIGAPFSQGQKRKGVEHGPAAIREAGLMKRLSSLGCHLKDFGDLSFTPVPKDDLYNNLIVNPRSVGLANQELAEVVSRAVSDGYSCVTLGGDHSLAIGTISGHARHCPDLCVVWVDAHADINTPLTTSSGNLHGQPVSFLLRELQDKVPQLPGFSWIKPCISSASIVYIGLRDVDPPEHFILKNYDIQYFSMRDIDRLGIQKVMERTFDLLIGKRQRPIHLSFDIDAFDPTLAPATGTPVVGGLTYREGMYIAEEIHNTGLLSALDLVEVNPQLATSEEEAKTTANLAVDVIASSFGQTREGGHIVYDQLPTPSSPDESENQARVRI
- Measurement Description: in vitro enzyme assay to detect the production of urea directly proportional to the activity of Arginase II; note: in the data most compounds retested in dose-response had high values
- Assay type: functional
- Set-up: scale not given: direction of the effect not stated beside the values
- Study Conditions: 30 µM
Reported Metric: Percent Effect

• CCn1ccnc1C1CCCN(C(=O)c2sc(C)nc2C)C1 (stereo unspecified) = 2.7%
• Cc1ccoc1CNCc1nnc2n1CC(C(F)(F)F)CC2 (stereo unspecified) = 3.78%
• Cc1noc(CNC(=O)N2CCN(c3nc(C)c(C)s3)CC2)n1 = 5.95%
• Cc1nn(CCO)c(C)c1CNC1CCOc2ccccc21 (stereo unspecified) = -9.19%
• Cc1nn(CCO)c(C)c1CNC1CCc2c(F)cccc21 (stereo unspecified) = 5.95%
• CCOC(=O)Cn1cccc(S(=O)(=O)N2CCCC2)c1=O = -11.3%
